- TESTED TARGET: Neuronal acetylcholine receptor subunit alpha-4 (Rattus norvegicus, UniProt P09483+P12390)
- Sequence (P09483 whole entry, one chain of several): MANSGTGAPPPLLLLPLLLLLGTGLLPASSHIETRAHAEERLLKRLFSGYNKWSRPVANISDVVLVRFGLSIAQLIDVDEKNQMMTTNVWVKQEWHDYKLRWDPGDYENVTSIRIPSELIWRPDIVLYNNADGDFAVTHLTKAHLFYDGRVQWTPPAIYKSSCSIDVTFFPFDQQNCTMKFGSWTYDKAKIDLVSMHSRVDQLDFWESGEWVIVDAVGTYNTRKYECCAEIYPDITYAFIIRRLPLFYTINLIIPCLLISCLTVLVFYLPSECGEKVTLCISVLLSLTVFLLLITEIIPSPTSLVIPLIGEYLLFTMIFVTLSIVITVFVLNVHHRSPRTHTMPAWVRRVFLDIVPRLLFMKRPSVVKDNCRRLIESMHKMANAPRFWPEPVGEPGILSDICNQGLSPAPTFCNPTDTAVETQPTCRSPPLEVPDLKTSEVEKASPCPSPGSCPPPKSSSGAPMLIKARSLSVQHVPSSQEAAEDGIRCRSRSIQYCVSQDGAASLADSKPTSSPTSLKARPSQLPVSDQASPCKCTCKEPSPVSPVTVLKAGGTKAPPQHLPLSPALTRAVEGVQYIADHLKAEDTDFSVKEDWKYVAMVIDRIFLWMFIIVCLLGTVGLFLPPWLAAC
- PROTOCOL DESCRIPTION: Binding affinity for nAChR with [3H]-nicotine in rat alpha4 beta2 membranes
Kindly state pKi for each of the entries shown.
Lab note — pKi values are minus log10 of concentrations in M.

Task: Consider the molecule shown here: [N-]=[N+]=Nc1cc(CN2CCNC2=N[N+](=O)[O-])cnc1Cl [5-AZIDOIMIDACLOPRID] What is its recorded pKi?
Result: 8.36

Task: Same question for O=[N+]([O-])NC1=NCCN1Cc1ccc(Cl)nc1 [IMIDACLOPRID] please.
Result: 7.30

FYI, the data here is from ChEMBL document CHEMBL1133567.
